All figures here come from patent US4847247A.

Known IC50 of a selection of compounds
- tested-system: Human Polymorphonuclear Leukocyte Elastase (Homo sapiens)
- Construct: Crude extract of human polymorphonuclear leukocytes (PMN) containing elastase activity; endogenous in cells; host or cells: human polymorphonuclear leukocytes (crude extract)
- Sequence (P08246 30-247 limits assumed): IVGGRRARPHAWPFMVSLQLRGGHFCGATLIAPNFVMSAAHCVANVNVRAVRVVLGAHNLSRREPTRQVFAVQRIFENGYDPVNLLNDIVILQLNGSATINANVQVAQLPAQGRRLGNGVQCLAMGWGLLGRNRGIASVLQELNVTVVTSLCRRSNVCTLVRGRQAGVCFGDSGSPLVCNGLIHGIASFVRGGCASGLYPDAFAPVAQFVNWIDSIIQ
- assay-info: Inhibition of human polymorphonuclear leukocyte (granulocyte) elastase via hydrolysis of Boc-AAPAN
- Type: biochemical
- test-parameters: crude human PMN extract, 0.2 mM Boc-AAPAN, pH 7.5, 410 mμ, 2 minutes after zero time; read-out: IC50 (dosage for 50% inhibition of the enzyme activity) (converted)
Supply the numeric figure in µM, leaving out any unit text.

In the examples that follow, each entry is paired with its recorded IC50.
Given the compound CO[C@H]1C(=O)N2[C@@H]1SC(C)(COC(C)=O)[C@@H]2C(=O)OCc1ccccc1 (stereo partly drawn) [α-CH3 O / 0 / OBZ] , write its reported IC50. 13.2

Hello, please tell me recorded IC50 for this one: CO[C@]1(NC(=O)C(F)(F)F)C(=O)N2[C@@H](C(=O)OCc3ccccc3)C(C)(C)S(=O)(=O)[C@@H]21 [α-CF3 CONH / β-CH3 O / 2 / OBZ] 1.72

Query IC50 for C[C@@H](OC(=O)OCc1ccccc1)[C@H]1C(=O)N2[C@@H](C(=O)OCc3ccccc3)C(C)(C)S(=O)(=O)[C@H]12 [drawing 29 / 2 / OBZ] 0.0997

Please find the next compound below.
Please supply the value of reported IC50 for the item CC(O)[C@H]1C(=O)N2[C@@H]1SC(C)(C)[C@@H]2C(=O)OCc1ccccc1 (stereo partly drawn) [6α-CH3 CH(OH) / 0 / OBZ] 59.6
